Reference source: ChEMBL document CHEMBL1697781

# Tested on: Hepatotoxicity
# test.description: FDA HLAED, serum glutamic pyruvic transaminase (SGPT) increase
# setup.conditions: human
readout.type: SGPT Increase - Number of Reports

Solved entries:
molecule	experimental.target	value.observed
CCOC(=O)[C@H](CCc1ccccc1)N[C@@H](C)C(=O)N1CCC[C@H]1C(=O)O	Hepatotoxicity	>= 4
Cn1cnc([N+](=O)[O-])c1Sc1ncnc2nc[nH]c12	Hepatotoxicity	>= 4
CC(C)COCC(CN(Cc1ccccc1)c1ccccc1)N1CCCC1 (stereo not drawn)	Hepatotoxicity	< 4
COc1cc(NCc2ccc3nc(N)nc(N)c3c2C)cc(OC)c1OC [TRIMETREXATE]	Hepatotoxicity	< 4
Nc1cc(N2CCCCC2)nc(N)[n+]1[O-]	Hepatotoxicity	>= 4

Tested on Hepatotoxicity: FC(F)OC(F)C(F)(F)F (stereo not drawn) . Observed SGPT Increase - Number of Reports: < 4

Tested on Hepatotoxicity: CC(=O)N(CC(O)CN(C(C)=O)c1c(I)c(C(=O)NCC(O)CO)c(I)c(C(=O)NCC(O)CO)c1I)c1c(I)c(C(=O)NCC(O)CO)c(I)c(C(=O)NCC(O)CO)c1I (stereo not drawn) . Observed SGPT Increase - Number of Reports: < 4

Tested on Hepatotoxicity: CN(C)c1nc(N(C)C)nc(N(C)C)n1 . Observed SGPT Increase - Number of Reports: < 4

Tested on Hepatotoxicity: CCC1=C(C)CN(C(=O)NCCc2ccc(S(=O)(=O)NC(=O)N[C@H]3CC[C@H](C)CC3)cc2)C1=O [GLIMEPIRIDE] . Observed SGPT Increase - Number of Reports: < 4

Tested on Hepatotoxicity: COc1cc([C@@H]2c3cc4c(cc3[C@@H](O[C@@H]3O[C@@H]5CO[C@@H](c6cccs6)O[C@H]5[C@H](O)[C@H]3O)[C@H]3COC(=O)[C@H]23)OCO4)cc(OC)c1O [TENIPOSIDE] . Observed SGPT Increase - Number of Reports: < 4

Tested on Hepatotoxicity: CC(C)NCC(O)COc1ccc(CC(N)=O)cc1 (stereo not drawn) . Observed SGPT Increase - Number of Reports: >= 4

* * *

# System: Hepatotoxicity
# test.description: FDA HLAED, lactate dehydrogenase (LDH) increase
# setup.conditions: human
readout.type: LDH Increase - Number of Reports

Solved entries:
molecule	LDH Increase - Number of Reports
CC[C@H]1OC(=O)[C@H](C)[C@@H](O[C@H]2C[C@@](C)(OC)[C@@H](O)[C@H](C)O2)[C@H](C)[C@@H](O[C@@H]2O[C@H](C)C[C@H](N(C)C)[C@H]2O)[C@](C)(O)C[C@@H](C)CN(C)[C@H](C)[C@@H](O)[C@]1(C)O	>= 4
CCOC(=O)[C@H](CCc1ccccc1)N[C@@H](C)C(=O)N1CCC[C@H]1C(=O)O	>= 4
c1ccc([C@H]2CN3CCSC3=N2)cc1	>= 4
COC(=O)CCc1ccc(OCC(O)CNC(C)C)cc1 (stereo not given)	< 4
COc1cc([C@@H]2c3cc4c(cc3[C@H](O)[C@H]3COC(=O)[C@H]23)OCO4)cc(OC)c1OC	< 4

Given item CCOC(=O)[C@H](CCc1ccccc1)N[C@@H](C)C(=O)N1Cc2cc(OC)c(OC)cc2C[C@H]1C(=O)O , the value recorded as its LDH Increase - Number of Reports is < 4

Given item NC1=NC(=O)C(c2ccccc2)O1 (stereo not given) , the value recorded as its LDH Increase - Number of Reports is >= 4

Given item Cc1ccnc2c1NC(=O)c1cccnc1N2C1CC1 , the value recorded as its LDH Increase - Number of Reports is >= 4

* * *

Alkaline Phosphatase Increase - Index Value values for the compounds below.
# System: Hepatotoxicity
# test.description: FDA HLAED, alkaline phosphatase increase
# setup.conditions: human
Give only the figure.

Solved entries:
compound	experimental.target	value.observed
CC(C)NCC(O)COc1ccc(COCCOC(C)C)cc1 (stereo not given) [BISOPROLOL]	Hepatotoxicity	3.1
COc1ccc(OC)c(C(O)CNC(=O)CN)c1 (stereo not given) [MIDODRINE]	Hepatotoxicity	0
CCCCC[C@H](O)/C=C/[C@@H]1[C@H]2C/C(=C/CCCC(=O)O)O[C@H]2C[C@H]1O [EPOPROSTENOL]	Hepatotoxicity	0

Tested on Hepatotoxicity: CC(C)(C)NCC(O)COc1cccc2c1CCC(=O)N2 (stereo not given) [CARTEOLOL] . Observed Alkaline Phosphatase Increase - Index Value: 0

Tested on Hepatotoxicity: COc1ccc(Cl)cc1C(=O)NCCc1ccc(S(=O)(=O)NC(=O)NC2CCCCC2)cc1 [GLYBURIDE] . Observed Alkaline Phosphatase Increase - Index Value: 3.4

Tested on Hepatotoxicity: CN[C@H]1CC[C@@H](c2ccc(Cl)c(Cl)c2)c2ccccc21 [SERTRALINE] . Observed Alkaline Phosphatase Increase - Index Value: 2

* * *

# System: Hepatotoxicity
# test.description: FDA HLAED, serum glutamic pyruvic transaminase (SGPT) increase
# setup.conditions: human
readout.type: SGPT Increase - Activity Score

Solved entries:
compound	SGPT Increase - Activity Score
CCCN1CCCC[C@H]1C(=O)Nc1c(C)cccc1C [ROPIVACAINE]	Inactive
Fc1ccccc1C1=NCC(=S)N(CC(F)(F)F)c2ccc(Cl)cc21 [QUAZEPAM]	Inactive
COC(=O)C1=C(C)NC(C)=C(C(=O)OC)C1c1ccccc1[N+](=O)[O-] [NIFEDIPINE]	Inactive
COc1cc2nc(N3CCN(C(=O)C4CCCO4)CC3)nc(N)c2cc1OC (stereo not given) [TERAZOSIN]	Inactive

The record that follows has no SGPT Increase - Activity Score shown yet.
Given item CCN[C@H]1C[C@H](C)S(=O)(=O)c2sc(S(N)(=O)=O)cc21 [DORZOLAMIDE] , the value recorded as its SGPT Increase - Activity Score is Inactive

* * *

# System: Hepatotoxicity
# test.description: FDA HLAED, liver enzyme composite activity
# setup.conditions: human
readout.type: Composite Activity - Active
Give only the figure.

compound	experimental.target	value.observed
CC(O)(CS(=O)(=O)c1ccc(F)cc1)C(=O)Nc1ccc(C#N)c(C(F)(F)F)c1 (stereo unspecified) [BICALUTAMIDE]	Hepatotoxicity	3
C[C@H](CS)C(=O)N1CCC[C@H]1C(=O)O	Hepatotoxicity	0
CC(=O)OCC(CCn1cnc2cnc(N)nc21)COC(C)=O	Hepatotoxicity	0
N[C@@H](C(=O)N[C@@H]1C(=O)N2C(C(=O)O)=C(Cl)CC[C@H]12)c1ccccc1 [LORACARBEF ANHYDROUS]	Hepatotoxicity	0
CCCCCCCCCC(=O)CC(=O)O[C@H]1CC[C@H]2[C@@H]3CCC4=CC(=O)CC[C@]4(C)[C@H]3CC[C@]12C [TESTOSTERONE KETOLAURATE]	Hepatotoxicity	0
CC(C)(C)NC(=O)[C@@H]1CN(Cc2cccnc2)CCN1C[C@@H](O)C[C@@H](Cc1ccccc1)C(=O)N[C@H]1c2ccccc2C[C@H]1O.O	Hepatotoxicity	5
COc1ccc2c(c1)c(CC(=O)O)c(C)n2C(=O)c1ccc(Cl)cc1	Hepatotoxicity	0
CO/N=C(\C(=O)N[C@@H]1C(=O)N2C(C(=O)O)=CCS[C@H]12)c1csc(N)n1	Hepatotoxicity	2
CNCC(O)c1ccc(OC(=O)C(C)(C)C)c(OC(=O)C(C)(C)C)c1 (stereo unspecified)	Hepatotoxicity	0
CC(S)C(=O)NCC(=O)O (stereo unspecified)	Hepatotoxicity	0

Given item COCC1=C(C(=O)OC(C)OC(=O)OC(C)C)N2C(=O)[C@@H](NC(=O)/C(=N\OC)c3csc(N)n3)[C@H]2SC1 (stereo partly specified) , the value recorded as its Composite Activity - Active is 0

Given item O=C1c2c(O)ccc(O)c2C(=O)c2c(NCCNCCO)ccc(NCCNCCO)c21 , the value recorded as its Composite Activity - Active is 1

Given item CCCN1C[C@H](CSC)C[C@@H]2c3cccc4[nH]cc(c34)C[C@H]21 [PERGOLIDE] , the value recorded as its Composite Activity - Active is 0

Given item C[C@H](O)C(=O)Nc1c(I)c(C(=O)NC(CO)CO)c(I)c(C(=O)NC(CO)CO)c1I , the value recorded as its Composite Activity - Active is 1

* * *

# Tested on: Hepatotoxicity
# test.description: FDA HLAED, lactate dehydrogenase (LDH) increase
# setup.conditions: human
readout.type: LDH Increase - Index Value

compound	LDH Increase - Index Value
C[C@](N)(Cc1ccc(O)cc1)C(=O)O	0
Fc1ccccc1C1=NCC(=S)N(CC(F)(F)F)c2ccc(Cl)cc21	0
CCc1nn(CCCN2CCN(c3cccc(Cl)c3)CC2)c(=O)n1CCOc1ccccc1	1.1
C=CC[N+]1([C@H]2C[C@H]3[C@@H]4CC[C@H]5C[C@H](O)[C@@H](N6CCOCC6)C[C@]5(C)[C@H]4CC[C@]3(C)[C@H]2OC(C)=O)CCCC1.[Br-] [ROCURONIUM BROMIDE]	0
CN1CCC[C@H]1c1cccnc1	0.9

Given item COc1ccccc1OCCNCC(O)COc1cccc2[nH]c3ccccc3c12 (stereo unspecified) , the value recorded as its LDH Increase - Index Value is 0

Given item Cc1cccc(C)c1OCC(C)N (stereo unspecified) , the value recorded as its LDH Increase - Index Value is 2

Given item CC(C)(C)NC[C@H](O)COc1ccccc1C1CCCC1 , the value recorded as its LDH Increase - Index Value is 0

Given item CC(C)COCC(CN(Cc1ccccc1)c1ccccc1)N1CCCC1 (stereo unspecified) , the value recorded as its LDH Increase - Index Value is 27.1

Given item CC1=C(/C=C/C(C)=C/C=C/C(C)=C\C(=O)O)C(C)(C)CCC1 , the value recorded as its LDH Increase - Index Value is 54

Given item O=C(O)c1cc(/N=N/c2ccc(O)c(C(=O)O)c2)ccc1O , the value recorded as its LDH Increase - Index Value is 0.7

Given item CCOC(=O)[C@H](CCc1ccccc1)N[C@@H](C)C(=O)N1[C@H](C(=O)O)C[C@H]2CCCC[C@@H]21 , the value recorded as its LDH Increase - Index Value is 0

Given item CC(=O)Oc1c(C)cc(OCC(O)CNC(C)C)c(C)c1C (stereo unspecified) , the value recorded as its LDH Increase - Index Value is 0

Given item CCCCC[C@H](O)/C=C/[C@@H]1[C@H]2C/C(=C/CCCC(=O)O)O[C@H]2C[C@H]1O , the value recorded as its LDH Increase - Index Value is 0

Given item Nc1c2c(nc3ccccc13)CCCC2 , the value recorded as its LDH Increase - Index Value is 19

Given item OCc1cc(C(O)CNCCCCCCOCCCCc2ccccc2)ccc1O (stereo unspecified) , the value recorded as its LDH Increase - Index Value is 0
